# credit: patent US20250034275A1

Target or test system: T1, human Trop-2 (on the surface of human cell lines) (human, UniProt P09758 27-323)
T1 construct: Endogenous Trop-2 on NCI-H322, Capan-1, PC-3, HUVEC, OVCAR-3, HCC38 and HCC1806 cells; also called TACSTD2
T1 sequence: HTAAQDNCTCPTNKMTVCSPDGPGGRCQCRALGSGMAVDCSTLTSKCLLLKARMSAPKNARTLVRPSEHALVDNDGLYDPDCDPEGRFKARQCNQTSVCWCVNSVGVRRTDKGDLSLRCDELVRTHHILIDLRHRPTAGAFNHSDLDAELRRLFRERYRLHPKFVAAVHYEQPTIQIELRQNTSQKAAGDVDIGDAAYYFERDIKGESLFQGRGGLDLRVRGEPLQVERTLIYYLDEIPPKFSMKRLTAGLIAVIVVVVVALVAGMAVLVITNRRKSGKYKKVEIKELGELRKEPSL
Measurement notes: flow cytometry, HCC1806 cells
Attribute measured: EC50 (pM)
The figure you give is taken to be in pM; do not add the unit.

Exercise: For the binder shown here, hz-Ab35-2.2 (antibody, human IgG1, kappa, V domains shown, Humanized antibody) VH: QVQLVQSGAEVKKPGASVKVSCKASGYTFTSSDINWVRQRPGQGLEWMGWIYPRDGSKKYNEKFKGRVTMTVDTSTSTVYMELSSLRSEDTAVYYCARRFATVVSNYGLDPWGQGTLVTVSS VL: EIVLTQSPATLSLSPGERATLSCSASSSVNYIYWYQRKPGQAPRLLIYDTSNLASGIPARFSGSGSGTDYTLTISSLEPEDFAVYYCQQWNSYPLTFGQGTKVEIKR , give the reported EC50.
Key: 580

Could you now look at the following binder, please?
Exercise: Field request: EC50 | item: hz-Ab2-1.3 (antibody, human IgG1, kappa, V domains shown, Humanized antibody) VH: QVQLQESGPGLVKPSETLSLTCTVSGFSLTYYGIDWIRQPPGKGLEWIGVIWGSGNTKYNSALKSRVTISKDNSKSQFSLKLSSVTAADTAVYYCARFYEGFAYWGQGTLVTVSS VL: DIQMTQSPSSLSASVGDRVTITCKASQDINSYLSWFQQKPGKAPKTLIYRANRLVEGVPSRFSGSGSGQDYTLTISSLQPEDFATYYCLQYDEFPLTFGQGTKVEIKR
Key: 1220
